Values were extracted from the supplement of paper PMC8728848.

measured-target: Fuc(a1-3)GlcNAc
experiment: glycan array binding signal (z-score within array); higher = stronger binding
applied-conditions: glycan notation: IUPAC condensed, linker removed
The full list was thinned out, with the strongest signals kept by preference.
Below is a list of entries, each paired with its recorded glycan array binding signal (z-score) value.

{"columns": ["binder", "test-value"],
 "data": [
  ["Actd5 (Actinidia), P84527 (protein) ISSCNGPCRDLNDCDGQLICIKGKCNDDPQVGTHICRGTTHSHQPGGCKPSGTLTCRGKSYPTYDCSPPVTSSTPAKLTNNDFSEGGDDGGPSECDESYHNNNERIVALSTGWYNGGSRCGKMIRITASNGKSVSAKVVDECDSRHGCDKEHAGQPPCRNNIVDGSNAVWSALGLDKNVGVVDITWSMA", -0.676],
  ["Clec12b (Mus musculus), Q149M0 (protein) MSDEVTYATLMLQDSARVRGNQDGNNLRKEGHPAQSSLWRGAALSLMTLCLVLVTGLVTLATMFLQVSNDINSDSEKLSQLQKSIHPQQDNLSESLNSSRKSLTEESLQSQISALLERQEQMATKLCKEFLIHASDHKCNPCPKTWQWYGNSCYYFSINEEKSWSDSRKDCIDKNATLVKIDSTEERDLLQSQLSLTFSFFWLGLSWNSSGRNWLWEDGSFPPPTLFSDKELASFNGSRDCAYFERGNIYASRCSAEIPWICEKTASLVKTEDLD", -0.323],
  ["Agalectin (Anopheles gambiae) (protein) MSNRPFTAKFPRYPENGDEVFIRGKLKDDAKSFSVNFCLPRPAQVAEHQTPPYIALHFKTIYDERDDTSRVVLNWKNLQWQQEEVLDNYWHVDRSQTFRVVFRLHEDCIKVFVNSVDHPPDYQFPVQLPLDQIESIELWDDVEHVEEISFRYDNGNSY", -1.07],
  ["NKp30 (Homo sapiens), O14931 (protein) MAWMLLLILIMVHPGSCALWVSQPPEIRTLEGSSAFLPCSFNASQGRLAIGSVTWFRDEVVPGKEVRNGTPERFGRLAPLASSRFLHDHQAELHIRDVRGHDASIYVCRVEVLGLGVGTGNGTRLVVRKEHPQLGAGTHADPEAPEAEGAPSVFLFPPKPKDTLMISRTPEVTCVVVDVSHEDPEVKFNWYVDGVEVHNAKTPREEQYNSTYRVVSVLTVLHQDWLNGKEYKCKVSNKALPAPIEKTISKAKGQPREPQVYTLPPSRDELTKNQVSLTCLVKGFYPSDIAVEWESNGQPENNYKTTPPVLDSDGSFFLYSKLTVDKSRWQQGNVFSCSVMHEALHNHYTQKSLSLSPGK", 13.9],
  ["Gal 7 (Canis lupus) (protein) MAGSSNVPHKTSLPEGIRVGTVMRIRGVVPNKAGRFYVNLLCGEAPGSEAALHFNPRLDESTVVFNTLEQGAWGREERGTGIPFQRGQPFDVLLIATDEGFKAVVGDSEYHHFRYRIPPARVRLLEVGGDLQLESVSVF", -0.217]
]}

Respond only with glycan array binding signal (z-score) recorded for MPA (Maclura pomifera), P18674 (protein) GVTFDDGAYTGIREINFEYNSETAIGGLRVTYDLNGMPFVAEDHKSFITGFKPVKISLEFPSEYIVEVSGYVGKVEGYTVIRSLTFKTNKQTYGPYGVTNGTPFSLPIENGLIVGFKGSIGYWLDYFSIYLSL
-0.164

Respond only with glycan array binding signal (z-score) recorded for Gal 2 (Homo sapiens), P05162 (protein) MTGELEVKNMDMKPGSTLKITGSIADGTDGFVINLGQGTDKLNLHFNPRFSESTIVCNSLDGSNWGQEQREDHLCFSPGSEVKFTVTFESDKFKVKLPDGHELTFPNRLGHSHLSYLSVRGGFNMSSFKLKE
-0.254

Respond only with glycan array binding signal (z-score) recorded for Gal 9 (Homo sapiens), O00182 (protein) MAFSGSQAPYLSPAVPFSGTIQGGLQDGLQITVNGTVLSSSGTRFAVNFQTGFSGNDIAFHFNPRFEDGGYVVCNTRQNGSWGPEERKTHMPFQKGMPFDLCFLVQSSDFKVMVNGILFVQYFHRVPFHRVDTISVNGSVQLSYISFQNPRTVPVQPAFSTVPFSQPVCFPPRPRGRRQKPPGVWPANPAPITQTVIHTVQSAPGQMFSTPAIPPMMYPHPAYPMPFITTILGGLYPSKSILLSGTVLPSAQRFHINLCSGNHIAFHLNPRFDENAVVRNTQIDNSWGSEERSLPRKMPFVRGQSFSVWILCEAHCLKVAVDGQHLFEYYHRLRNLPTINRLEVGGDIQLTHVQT
-0.32

Respond only with glycan array binding signal (z-score) recorded for LlpA (Arthrobacter sp) (protein) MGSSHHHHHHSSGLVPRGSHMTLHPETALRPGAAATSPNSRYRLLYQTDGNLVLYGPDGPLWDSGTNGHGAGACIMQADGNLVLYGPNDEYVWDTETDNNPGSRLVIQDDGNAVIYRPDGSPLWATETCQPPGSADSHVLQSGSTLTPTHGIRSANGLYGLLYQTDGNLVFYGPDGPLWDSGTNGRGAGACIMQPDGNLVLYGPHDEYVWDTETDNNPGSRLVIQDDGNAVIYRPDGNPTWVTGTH
-0.654

Respond only with glycan array binding signal (z-score) recorded for PFL (Pseudomonas fluorescens) (protein) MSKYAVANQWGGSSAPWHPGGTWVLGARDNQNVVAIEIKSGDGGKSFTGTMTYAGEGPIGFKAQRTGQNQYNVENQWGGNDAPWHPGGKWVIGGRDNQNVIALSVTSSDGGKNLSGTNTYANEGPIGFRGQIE
-0.12

Respond only with glycan array binding signal (z-score) recorded for Clec18A (Homo sapiens) (protein) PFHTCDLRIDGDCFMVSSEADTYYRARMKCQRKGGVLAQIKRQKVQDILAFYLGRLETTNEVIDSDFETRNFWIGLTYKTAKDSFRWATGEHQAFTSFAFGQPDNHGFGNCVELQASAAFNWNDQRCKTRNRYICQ
-0.783
